Taken from patent US20240051956A1.

This section presents compounds with their documented IC50 values.
- study.target: SOS1 and KRAS G12D (Homo sapiens (Human), UniProt Q07889)
- Sequence (Q07889 564-1049, stated change not applied): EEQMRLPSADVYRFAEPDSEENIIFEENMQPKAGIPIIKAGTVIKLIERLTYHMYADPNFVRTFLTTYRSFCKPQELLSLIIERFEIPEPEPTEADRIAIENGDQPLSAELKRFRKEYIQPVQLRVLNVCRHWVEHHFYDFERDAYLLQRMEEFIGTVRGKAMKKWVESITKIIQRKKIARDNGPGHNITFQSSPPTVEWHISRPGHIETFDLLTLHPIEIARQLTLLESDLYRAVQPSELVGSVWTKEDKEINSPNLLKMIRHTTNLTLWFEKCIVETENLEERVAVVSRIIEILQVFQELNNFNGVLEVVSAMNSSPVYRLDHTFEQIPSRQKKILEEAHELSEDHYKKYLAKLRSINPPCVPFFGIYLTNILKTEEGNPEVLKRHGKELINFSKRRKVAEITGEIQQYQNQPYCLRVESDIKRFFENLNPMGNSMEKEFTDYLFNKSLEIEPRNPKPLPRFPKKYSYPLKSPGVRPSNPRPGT
- protocol.description: KRAS::SOS1 AlphaScreen Binding Assay
- details: SOS1 (564-1049), KRAS G12D (1-169), GDP

Check out these entries, answers already filled in.
compound: Cc1nc(N[C@H](C)c2cccc(C(F)(F)F)c2)c2cn(N3CCOCC3)c(=O)cc2n1 [Example 20]
recorded.result: ≤ 15 nM
--
compound: Cc1nc(N[C@H](C)c2cccc(C(F)F)c2F)c2cn(N3CCN(c4ccc(C#N)cn4)CC3)c(=O)cc2n1 [Example 15]
recorded.result: 15 to 150 nM
--
compound: Cc1nc(N[C@H](C)c2cccc(C(F)F)c2F)c2cn(N3C[C@@H](C)O[C@@H](C)C3)c(=O)cc2n1 [Example 5]
recorded.result: ≤ 15 nM
--
compound: Cc1ccc(-c2c(=O)n(N3CCOCC3)cc3c(N[C@H](C)c4cccc(C(F)F)c4F)nc(C)nc23)cn1 [Example 59]
recorded.result: ≤ 15 nM
--
compound: Cc1nc(N[C@H](C)c2cccc(C(F)F)c2F)c2cn(N3CCCOCC3)c(=O)cc2n1 [Example 6]
recorded.result: ≤ 15 nM
--
compound: Cc1nc(N[C@H](C)c2cc(N)cc(C(F)(F)F)c2)c2cn(N3CCOCC3)c(=O)c(-c3ccc(C#N)nc3)c2n1 [Example 83]
recorded.result: ≤ 15 nM

Turning now to a further record.
// query What value of measured IC50 is listed for CCC(Nc1nc(C)nc2cc(=O)n(N3CCOCC3)cc12)c1cccc(C(F)(F)F)c1 (stereo not shown) [Example 24] ?
// result 15 to 150 nM
